The following compounds are listed with their measured TGI values.
tested on: SF-268 CNS; assay: NCI tumour cell line growth inhibition, 48 h

Previously resolved entries follow.
• C=C1C2C[C@@H]3OC4CC5O[C@]6(CC5OC4C(C)C3OC(=O)CC3CC[C@@H]4OC5C7OC8C[C@](CCC9CC(=C)[C@H](CCC(C[C@H]1C)O2)O9)(OC7C4O3)O[C@@H]85)C[C@@H]1O[C@@]2(CC(C)[C@@H]3OC(CC(=O)CCO)C(O)C[C@@H]3O2)CC(C)[C@@H]1O6 (stereo partly specified) = 1.61 µM
• O=C(O)C(Br)C(Br)C(=O)O (stereo unspecified) = > 100 µM
• COc1ccc(C(=O)c2c(-c3ccccc3NC(=O)C(F)(F)F)[nH]c3ccccc23)cc1 = 28.7 µM
• Cc1cc(Br)cc(C)c1NC(=O)C(=O)C(C(=O)c1ccncc1)C1OC(=O)c2ccccc21 (stereo unspecified) = > 100 µM
• Cn1c(=O)c2c(nc3n2CCC(=O)N3CCCCl)n(C)c1=O = > 100 µM

Sample O=C(N/N=C\c1cccs1)c1ccncc1 — what was its TGI?
> 100 µM

Ok, now Nc1nc(Nc2ccc(Cl)cc2)sc1C(=O)c1c[nH]c2ccccc12
60 µM

And COc1cc(OC)cc(-c2nc3sccn3c2/C=N/N=C(N)N)c1 ?
27.2 µM

Also Nc1ncn(C2OC(COP(=O)(O)O)C(O)C2O)c(=O)n1 (stereo unspecified) , if possible.
> 100 µM

Quick one: CC(C)NCC(O)c1ccc(O)c2ncccc12 (stereo unspecified)
> 100 µM

Same thing, different compound: C=CCOC(=O)c1c(C)n([O-])c2cc(Cl)c(Cl)cc2[n+]1=O
29.5 µM

Same again, this time with CCNC(=O)NNc1ncnc2c1c(-c1ccc(Cl)cc1)cn2-c1ccc(C)cc1
39 µM

----------
system: EKVX NSCLC; assay: NCI tumour cell line growth inhibition, 48 h; in the data active = GI50 below about 0.43 µM; inactive = the rest
# output must be one of active, inactive

Sample answers from the record:
- CC/C=C\C[C@H](O)C/C=C1/C(=O)C=C[C@@H]1C/C=C\CCCC(=O)OC(C)C: inactive
- CC(C)=O.O=C([O-])C(F)(F)F.O=C([O-])C(F)(F)F.O=C([O-])C(F)(F)F.O=C([O-])C(F)(F)F.[Rh+2].[Rh+2]: inactive
- COc1cc(-c2nn(-c3cccc(NC(=O)NCCNS(=O)(=O)c4ccc(Cl)cc4)c3)cc2-c2ccncc2)ccc1Cl: inactive
- O=c1cc(-c2ccccc2)oc2ccc(OC/C(=N/O)c3ccc(F)cc3)cc12: inactive
- Nc1ncnc2c1c(-c1ccc(Oc3ccccc3)cc1)nn2C[C@H]1SSC[C@@H]1O: active
- COc1ccc(OC)c(NC(=O)c2cccc(NC3=C(Cl)C(=O)N(Cc4ccccc4)C3=O)c2)c1: inactive

Next item in the queue.
What was the test verdict on O=P(O)(O)OCC1OC(n2cnc3c(NCc4ccco4)ncnc32)C(O)C1O (configuration not stated) ?
inactive

----------
tested on: SNB-75 CNS; experiment: NCI tumour cell line growth inhibition, 48 h; in the data active = GI50 below about 0.43 µM; inactive = the rest
// classify into class 1 for active, class 0 for inactive

- c1ccc2cc(Cn3cc[n+](Cc4ccc5ccccc5c4)c3)ccc2c1: class 1
- COc1cccc(-n2ncc3c(N/N=C/c4ccc(C)cc4)ncnc32)c1: class 0
- CCCCCCCCCCCC[N+](C)(C)Cc1ccccc1: class 0
- O=C1/C(=C/c2ccc(F)c(F)c2)CN(C(=O)C(Cl)Cl)C/C1=C\c1ccc(F)c(F)c1: class 1
- C=C1C(=O)O[C@H]2[C@H]1CC/C(Cn1cc(Cc3c[nH]c4ccccc34)nn1)=C\CC[C@@]1(C)O[C@@H]21: class 0
- O=C1OCC(c2ccc(O)cc2)=C1c1cc(O)c(O)c(O)c1: class 0
- C[C@]12CC[C@@H]3c4ccc(O)cc4CC[C@H]3[C@@H]1CC[C@@H]2NS(=O)(=O)c1cccc(Cl)c1: class 0
- CCCCCCCN(CCCCCCC)C(=N)c1ccnc2ccccc12: class 0
- COc1ccc(-c2nsc3c2NC(=O)CC3c2ccc3c(c2)OCCO3)cc1 (stereo not given): class 1

In this assay, the call recorded for COc1cc2c3c(n(CCCCNC(=O)OC(C)(C)C)c(=O)c2cc1OC)-c1cc2c(cc1C3=O)OCO2 was what?
class 0

The measurements presented in this section are drawn from PubChem BioAssay (NCI).
